systemTested: human adenosine A2A receptor (Homo sapiens, UniProt P29274)
Sequence (P29274 whole entry): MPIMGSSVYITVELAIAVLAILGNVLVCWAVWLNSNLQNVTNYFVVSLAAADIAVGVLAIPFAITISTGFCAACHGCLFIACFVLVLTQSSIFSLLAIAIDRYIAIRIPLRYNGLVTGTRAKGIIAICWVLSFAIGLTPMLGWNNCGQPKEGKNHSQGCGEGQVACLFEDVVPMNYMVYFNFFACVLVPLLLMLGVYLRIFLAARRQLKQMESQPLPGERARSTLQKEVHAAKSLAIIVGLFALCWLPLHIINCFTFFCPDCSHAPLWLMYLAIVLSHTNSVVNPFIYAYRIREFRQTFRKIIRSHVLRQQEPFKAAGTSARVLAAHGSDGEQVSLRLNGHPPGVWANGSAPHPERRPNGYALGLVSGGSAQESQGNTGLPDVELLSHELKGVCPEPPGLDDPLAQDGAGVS
protocolText: Antagonizing effect on human adenosine A2A receptor (NECA-stimulated cAMP, TR-FRET, HEK-293 cells)
conditionsUsed: inhibition of cAMP produced by NECA (3 nM), HEK-293 cells expressing human recombinant A2A receptor
Listing of entries alongside the reported IC50.

{"columns": ["molecule", "systemTested", "unitDescriptor", "IC50"],
 "data": [
  ["CCn1c(=O)c2c(nc(/C=C/c3ccc(OC4CCNCC4)cc3)n2C)n(CC)c1=O [Example 1]", "human adenosine A2A receptor (Homo sapiens, UniProt P29274)", "nM", 550],
  ["CCn1c(=O)c2c(nc(/C=C/c3ccc(OC4CCN(S(C)(=O)=O)CC4)cc3)n2C)n(CC)c1=O [Example 8]", "human adenosine A2A receptor (Homo sapiens, UniProt P29274)", "nM", 750],
  ["CCn1c(=O)c2c(nc(/C=C/c3ccc(OC4CCN(C(C)=O)CC4)cc3)n2C)n(CC)c1=O [Example 6]", "human adenosine A2A receptor (Homo sapiens, UniProt P29274)", "nM", 350],
  ["CCN1CCC(Oc2ccc(/C=C/c3nc4c(c(=O)n(CC)c(=O)n4CC)n3C)cc2)CC1 [Example 3]", "human adenosine A2A receptor (Homo sapiens, UniProt P29274)", "nM", 1480]
]}
